Biological target: T1, B7-H3, native protein on the cell surface of A498 and SK-MES-1 cells (UniProt Q5ZPR3 29-534, limits assumed)
T1 construct: whole, on cells; The cell line is named under assay for each row
T1 sequence (looked up): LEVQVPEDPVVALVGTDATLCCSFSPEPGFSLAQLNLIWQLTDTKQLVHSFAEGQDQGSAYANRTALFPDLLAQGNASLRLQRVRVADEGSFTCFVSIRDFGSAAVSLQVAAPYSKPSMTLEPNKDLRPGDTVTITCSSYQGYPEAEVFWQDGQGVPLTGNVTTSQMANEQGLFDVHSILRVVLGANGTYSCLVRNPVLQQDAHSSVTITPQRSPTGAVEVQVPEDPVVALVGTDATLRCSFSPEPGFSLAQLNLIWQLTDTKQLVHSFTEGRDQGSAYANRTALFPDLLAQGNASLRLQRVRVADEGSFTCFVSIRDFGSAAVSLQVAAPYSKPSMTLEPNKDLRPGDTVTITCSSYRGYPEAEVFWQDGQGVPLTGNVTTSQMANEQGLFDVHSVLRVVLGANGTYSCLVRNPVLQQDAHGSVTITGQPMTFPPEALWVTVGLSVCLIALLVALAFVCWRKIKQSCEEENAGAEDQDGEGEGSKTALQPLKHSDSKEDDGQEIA
Experiment: flow cytometry (FACS) on A498 cells
readout.kind: EC50 (nM)
Your answer should be a plain number; it is taken to be in nM.

- binder: "SCT-Da250 (antibody, V domains shown) VH: QGQMQQSGAELVKPGASVRLSCKTSGFTFSSFYISWLKQKPGQSLEWIAWIYAGPGYTSYNQKFTGKAQLTVDTSSSTAYMQFSSLTTEDSAIYYCARHVGRQRGYFDVWGAGTTVTVSS VL: DIVMTQSHKFMSTSVGDRVSITCKASQDVSTAVAWYQQKPGQSPKLLIYSASYRYTGVPDHFTVSGSGTDFTFTISSVQAEDLAVYYCQQHYSTPWTFGGGTKLEIK"
  EC50 [nM]: 1.43
- binder: "SCT-Da333 (antibody, V domains shown) VH: QVQLQQSGPELVRPGVSVKISCKGSGYTFTDYAVHWVKQSHAKSLEWIGVINTYSGNTYYNLHFKGKATMTVDKSSSTAYMELARLTSEDSAIYYCARRRGSHRDAYFDYWGQGTTLTVSS VL: DIVMTQSHKFMSTSVGDRVSITCRASQDVSTAVAWYQQKPGQSPKLLIYSASYRYTGVPDRFTVSGSGTDFTFTISSVQAEDLAVYYCQQHYSTPWTFGGGTKLEIK"
  EC50 [nM]: 3.29
- binder: "SCT-Da192 (antibody, V domains shown) VH: EVQLQQSGPELVKPGASVKISCKTSGYTFTEYTMHWVKQSHGKSLEWIGVINPNNGGTTYNQKFKGKATLTVDKSSSTAYMELRSLTSEDSAVYYCARPHSLLRLRREFDYWGQGTTLTVSS VL: QIVLTQSPALMSASPGEKVTMTCSASSSVSYMYWYQQKPRSSPKPWIYLTSNLASGVPARFSGSGSGTSYSLTISSMEAEDAATYYCQQWSSNPLTFGAGTKLELK"
  EC50 [nM]: 2.62
- binder: "SCT-Da182 (antibody, V domains shown) VH: EVQLQQSGPELVKPGASMKISCKVSGFSFTGYTMNWVKQSHGKNLEWIGLINTYNGGTFYNQKFKAKATLTVDKSSSTAHMELLSLTSEDSAVYYCARSPGRYSMDYWGQGTSVTVSS VL: DIVLTQSPASLAVSLGQRATISCKASQSVDYNGYSYLNWYQQKPGQPPKLLIYPASNLESGIPARFSGSGSGTDFTLNIHPVEEEDAATYYCQQSKEDPYTFGGGTKLEIK"
  EC50 [nM]: 3.7

Below: the item to evaluate.
Record request: EC50 value, item SCT-Da148 (antibody, V domains shown) VH: EVQLQQSGAELVKPGASVKLSCTASGVNIKDTYIHWVKQRPEQGLEWIGRIDPANGNRKYDPKFQGKATITADSSSNTAYLQLSSLTSEDTAVYYCARDGYYAPGYWGQGTTLTVSS VL: DIVMTQSQKFMSTSVGDRVSVTCKASQNVGTDVAWYQQKPGQSPKLLIYSASYRFSGVPDRFTGSGSGTDFSLAISNVQSEDLAEYFCQQYNSYPYTFGGGAKLEIK 1.6

Data provenance is patent US20220235134A1.
